Target: Bcl-xL (Homo sapiens, UniProt Q07817)
Sequence (Q07817 whole entry): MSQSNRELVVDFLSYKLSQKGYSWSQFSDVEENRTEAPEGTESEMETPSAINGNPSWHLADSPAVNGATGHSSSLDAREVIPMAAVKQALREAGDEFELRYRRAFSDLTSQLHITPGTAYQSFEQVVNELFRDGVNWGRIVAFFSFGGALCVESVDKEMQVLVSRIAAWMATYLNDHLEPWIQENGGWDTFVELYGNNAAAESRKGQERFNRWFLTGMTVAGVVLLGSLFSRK
Test: Bcl-xL binding affinity analysis (fluorescence polarization binding assay)
Set-up: scale not given here

| molecule | test-system | Bcl-XL binding affinity Ki |
| --- | --- | --- |
| C[C@@H]1[C@@H](NC(=O)[C@@H]2[C@H]([C@H](C)O)[C@H](CO)ON2Cc2cccc(-c3ccc(S(=O)(=O)N(C)C)cc3)c2)C[C@H]2C[C@@H]1C2(C)C [Compound 130] | Bcl-xL (Homo sapiens, UniProt Q07817) | ♯♯ |
| COc1cccc(CN(CCN(C)C)Cc2cccc(CN3OC(CO)C(C(C)O)C3C(=O)NC3CC4CC(C3C)C4(C)C)c2)c1 (stereo not drawn) [Compound 381] | Bcl-xL (Homo sapiens, UniProt Q07817) | ♯ |
| COCCNC(=O)c1cccc(-c2cccc(CN3O[C@@H](CO)[C@@H]([C@H](C)O)[C@H]3C(=O)N[C@H]3C[C@H]4C[C@@H]([C@@H]3C)C4(C)C)c2)c1 [Compound 153] | Bcl-xL (Homo sapiens, UniProt Q07817) | ♯ |
